The measured values listed here are drawn from patent US20230203185A1.

target: T1, pCD163-SRCR4-7-huFc (porcine, UniProt Q2VL90 372-818, limits assumed); experiment: SPR (Biacore 3000), antigen amine-coupled on CM5, VHH injected, pH 7.4
T1 construct: also called pCD163:SRCR4-7-Fc; pCD163-SRCR4-7-Fc; not shown: human Fc (huFc)
T1 sequence (Q2VL90 372-818 limits assumed): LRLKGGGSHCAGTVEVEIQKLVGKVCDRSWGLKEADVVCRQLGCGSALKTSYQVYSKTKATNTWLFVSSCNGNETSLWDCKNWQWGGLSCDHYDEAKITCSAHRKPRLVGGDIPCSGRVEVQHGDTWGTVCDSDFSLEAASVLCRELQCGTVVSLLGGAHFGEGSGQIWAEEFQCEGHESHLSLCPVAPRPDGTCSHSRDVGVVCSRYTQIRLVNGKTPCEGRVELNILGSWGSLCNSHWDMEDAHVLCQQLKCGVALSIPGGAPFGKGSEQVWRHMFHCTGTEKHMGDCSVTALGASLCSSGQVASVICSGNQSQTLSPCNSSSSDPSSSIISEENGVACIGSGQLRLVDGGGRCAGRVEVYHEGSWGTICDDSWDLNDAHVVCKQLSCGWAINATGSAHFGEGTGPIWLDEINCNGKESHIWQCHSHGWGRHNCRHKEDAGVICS
measuredMetric: koff (s⁻¹)
Number in s⁻¹, nothing else.

• VHH 015 (2G01) (VHH, Llama single domain antibody; also called 150(#15); VHCDR3 150(#15); not shown: tags: c-myc tag in periplasmic extract (ELISA, FACS); FLAG and His tags in purified VHH (SPR, infection assays)) VHH: QVQLVESGGGLVQAGDTLRLSCTASGRTFSSYSMGWFRQAPGKEREFVAAITWNGYITNYADSVKGRFTISRDNTKNTVFLQMNSLKPEETAVYYCAATTFSTTSPISRTYNYWGPGTQVTVSS = 0.00442
• VHH 008 (1H01) (VHH, Llama single domain antibody; also called 78(#8); VHCDR3 78(#8); not shown: tags: c-myc tag in periplasmic extract (ELISA, FACS); FLAG and His tags in purified VHH (SPR, infection assays)) VHH: QVQLVESGGGLVQAGGSLRLSCAASGRTFGTYSMGWFRQAPGKEREFVAAHRWSGSAYYAEHADSVEGRFTISRDYAKNMLYLQMNSLKHEDTAVYYCAAGVGSEAQYRYWGRGTQVTVSS = 0.00542
• VHH 001 (1B02) (VHH, Llama single domain antibody; also called 144(#1); VHCDR3 144(#1); not shown: tags: c-myc tag in periplasmic extract (ELISA, FACS); FLAG and His tags in purified VHH (SPR, infection assays)) VHH: EVQLVESGGGLVQAGGSLSLSCAASGGTLAMYAMSWFRQAPGKDRKFVAAINTSGRYSRYADSVKGRFTISRDNAKNTATLQMNSLEPEDTAVYYCAATDKGNWALAMSYDYWGQGTQVTVSS = 0.0227

Problem: Returns the measured koff for the input binder. Input: VHH 018 (3E01) (VHH, Llama single domain antibody; also called 49(#18); VHCDR3 49(#18); not shown: tags: c-myc tag in periplasmic extract (ELISA, FACS); FLAG and His tags in purified VHH (SPR, infection assays)) VHH: QVQLQESGGGLVQVGGSLRLSCVASGRAPSRYVMGWFRQAPGQEREFVAGIAWSGRAPYADSVKGRSTISRDNAKNTVYLQMNSLKPEDTGVYYCAGGEGAIRWTTLDAYDYWGQGTQVTVSS
Solution: 0.0121
